Reference for the values: ChEMBL document CHEMBL3046659

Please provide measured Activity for the entries that follow.
molecular target: UniProt P30542; test: Allosteric modulation of Homo sapiens (human) Adenosine A1 receptor expressed in CHO cells assessed as reduction of cAMP level at 1 uM after 6 min by radioimmunoassay; type: functional, cell-based; design: scale not given: the % may be the effect or the level left
Sequence (P30542 whole entry): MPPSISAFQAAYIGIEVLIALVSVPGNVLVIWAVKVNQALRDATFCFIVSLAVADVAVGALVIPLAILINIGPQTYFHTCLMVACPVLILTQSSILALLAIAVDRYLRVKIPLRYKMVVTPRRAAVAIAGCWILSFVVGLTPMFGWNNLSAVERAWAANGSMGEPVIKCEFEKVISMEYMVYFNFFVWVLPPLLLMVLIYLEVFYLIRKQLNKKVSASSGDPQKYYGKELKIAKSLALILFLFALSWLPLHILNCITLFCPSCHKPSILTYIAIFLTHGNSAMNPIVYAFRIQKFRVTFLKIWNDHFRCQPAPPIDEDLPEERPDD
Reply with just the number (in %).

Request: # query: Activity of entry Nc1sc2c(c1C(=O)c1ccc(Cl)cc1)CCCC2
Result: -26

Request: # query: Activity of entry Nc1sc2ccccc2c1C(=O)c1ccc(Cl)cc1
Result: -6

Request: # query: Activity of entry Nc1sc2c(c1C(=O)c1ccc(Cl)cc1)CCC1(C2)OCCO1
Result: 3

Request: # query: Activity of entry Nc1sc2c(c1C(=O)c1ccc(Cl)cc1)CCC(O)C2 (stereo not given)
Result: -2

Request: # query: Activity of entry CS(=O)(=O)OC1CCc2c(sc(N)c2C(=O)c2ccc(Cl)cc2)C1 (stereo not given)
Result: 15

Request: # query: Activity of entry Nc1sc2c(c1C(=O)c1ccc(Cl)cc1)CCC(Cc1ccccc1)C2 (stereo not given)
Result: -1

Request: # query: Activity of entry Nc1sc2c(c1C(=O)c1ccc(Cl)cc1)CCS2
Result: 1

Request: # query: Activity of entry Nc1sc2c(c1C(=O)c1ccc(Cl)cc1)CCSC2
Result: 16

Request: # query: Activity of entry COc1ccc(C2SCc3c(sc(N)c3C(=O)c3ccc(Cl)cc3)S2)cc1 (stereo not given)
Result: -17

Request: # query: Activity of entry Nc1sc2c(c1C(=O)c1ccc(Cl)cc1)CCC(c1ccccc1)C2 (stereo not given)
Result: -11
